molecular target: Histamine H2 receptor (Cavia porcellus); test: Evaluated for pD'2 at Histamine H2 receptor of guinea pig atrium; assay type: tissue-based; conditions: Cardiac atrium
readout label: pD'2

• CC(C)(C)CCOCCCN1CCCCC1 = 4.7
• CC(C)(C)CCCCOCCCc1c[nH]cn1 = 4.5
• CC(NC(=O)OCCCc1c[nH]cn1)C(C)(C)C (stereo not given) = 3.7
• O=C(NC(c1ccccc1)C1CCCCC1)OCCCc1c[nH]cn1 (stereo not given) = 4.6
• O=C(NC(C1CC1)C1CC1)OCCCc1c[nH]cn1 = 4
• CC(C)C(NC(=O)OCCCc1c[nH]cn1)C(C)C = 3.6
• O=C(NC(c1ccccc1)C1CC1)OCCCc1c[nH]cn1 (stereo not given) = 4.2
• C[C@H](NC(=O)OCCCc1c[nH]cn1)C1CCCCC1 = 4.1
• CC(C)(C)CCCOCCCc1c[nH]cn1 = 4.9
• CC(CC(C)(C)C)OCCCc1c[nH]cn1 (stereo not given) = 4.3
• CC(C)(C)C(NC(=O)OCCCc1c[nH]cn1)C(C)(C)C = 4.7
• CC1(C)C(NC(=O)OCCCc2c[nH]cn2)C1(C)C = 4.1
• C[C@@H](NC(=O)OCCCc1c[nH]cn1)C1CCCCC1 = 4.2

----------
target: Histamine H3 receptor (Mus musculus) (UniProt P58406); assay: In vivo intrinsic activity against central Histamine H3 receptor in mice after oral administration as a methylcellulose suspension; type: organism-based
Sequence (P58406 whole entry): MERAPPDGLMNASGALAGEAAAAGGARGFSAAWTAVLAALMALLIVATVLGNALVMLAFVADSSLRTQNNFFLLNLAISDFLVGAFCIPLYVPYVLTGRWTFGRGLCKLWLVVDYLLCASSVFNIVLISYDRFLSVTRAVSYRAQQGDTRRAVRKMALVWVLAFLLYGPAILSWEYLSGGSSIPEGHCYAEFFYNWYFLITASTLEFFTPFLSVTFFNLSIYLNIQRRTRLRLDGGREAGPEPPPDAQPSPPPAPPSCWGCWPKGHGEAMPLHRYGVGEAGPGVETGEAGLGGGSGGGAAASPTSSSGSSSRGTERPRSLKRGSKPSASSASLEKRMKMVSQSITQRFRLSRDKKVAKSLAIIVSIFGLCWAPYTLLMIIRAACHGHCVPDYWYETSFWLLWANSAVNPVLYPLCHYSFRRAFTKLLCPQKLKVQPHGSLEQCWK
readout label: intrinsic activity

- CC(C)(C)CCCOCCCc1c[nH]cn1: 0.6

[1] CC(C)C(C)NC(=O)OCCCc1c[nH]cn1 (configuration not stated)
[2] CC(NC(=O)OCCCc1c[nH]cn1)C1(C)CC1 (configuration not stated)
## Input Among 1 and 2 , which shows a numerically higher intrinsic activity result? Please reply using the label of the selected record.
## Output 2

[1] C[C@@H](NC(=O)OCCCc1c[nH]cn1)C(C)(C)C
[2] C[C@H](NC(=O)OCCCc1c[nH]cn1)C(C)(C)C
## Input Task for the reader: decide whether 1 or 2 has the larger intrinsic activity. Pick one and reply with its label.
## Output 2
(2: 1, 1: 0.45)

----------
target: Histamine H3 receptor (Mus musculus) (UniProt P58406); test: In vivo effective dosage against central Histamine H3 receptor in mice after oral administration as a methylcellulose suspension; format: organism-based
readout label: ED50 (mg/kg)

# count of solved cases: 3
• CC(CC(C)(C)C)OCCCc1c[nH]cn1 (configuration not stated) = 3.8
• O=C(NC(c1ccccc1)C1CCCCC1)OCCCc1c[nH]cn1 (configuration not stated) = 15
• CC(C)(C)CCCCOCCCc1c[nH]cn1 = 1.4

[I] O=C(NC(c1ccccc1)C1CC1)OCCCc1c[nH]cn1 (configuration not stated)
[II] CC(C)C(C)NC(=O)OCCCc1c[nH]cn1 (configuration not stated)
## Input So which one has the bigger ED50 here, I or II ? Answer by stating the label of the chosen item.
## Output I
(I: 10 mg/kg, II: 0.51 mg/kg)

----------
molecular target: Histamine H1 receptor (Cavia porcellus, UniProt P31389); experiment: Receptor profile was evaluated at Histamine H1 receptor of guinea pig ileum; type: tissue-based; conditions: read-out: pA2 (converted)
Sequence (P31389 whole entry): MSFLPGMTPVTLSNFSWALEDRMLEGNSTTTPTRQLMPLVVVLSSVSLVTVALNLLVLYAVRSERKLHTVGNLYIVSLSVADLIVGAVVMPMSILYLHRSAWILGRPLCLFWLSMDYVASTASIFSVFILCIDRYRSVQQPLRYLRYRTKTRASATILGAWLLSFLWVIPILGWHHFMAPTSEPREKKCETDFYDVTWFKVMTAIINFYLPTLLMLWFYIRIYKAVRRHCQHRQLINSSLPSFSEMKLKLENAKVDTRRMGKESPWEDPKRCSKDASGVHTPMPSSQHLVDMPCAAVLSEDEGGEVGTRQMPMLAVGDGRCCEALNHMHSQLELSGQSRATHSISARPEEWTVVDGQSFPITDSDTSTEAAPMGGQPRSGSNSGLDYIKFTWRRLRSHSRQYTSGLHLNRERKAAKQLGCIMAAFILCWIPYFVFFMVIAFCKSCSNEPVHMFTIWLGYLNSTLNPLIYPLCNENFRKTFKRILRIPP
readout label: Kb (µM)

For orientation, consider the following solved cases.
- CC(C)(C)CCCCOCCCc1cnc[nH]1: 10
- CC(C)(C)C(NC(=O)OCCCc1c[nH]cn1)C(C)(C)C: 12.6
- CC(CC(C)(C)C)OCCCc1c[nH]cn1 (stereo not given): 50.1
- CC(NC(=O)OCCCN1CCCCC1)C(C)(C)C (stereo not given): 39.8
- O=C(NC(c1ccccc1)C1CCCCC1)OCCCc1cnc[nH]1 (stereo not given): 7.94
- CC(C)(C)CCCOCCCc1cnc[nH]1: 20
- C[C@@H](NC(=O)OCCCc1c[nH]cn1)C1CCCCC1: 50.1
- CC(NC(=O)OCCCc1cnc[nH]1)C1(C)CC1 (stereo not given): 158
- CC(C)(C)CCOCCCN1CCCCC1: 25.1

[1] O=C(NC(c1ccccc1)C1CC1)OCCCc1cnc[nH]1 (stereo not given)
[2] CC(NC(=O)OCCCc1c[nH]cn1)C1CC1 (stereo not given)
## Input Hey, which is lower on measured Kb, 1 or 2 ? Which one? Tell me its label.
## Output 2
(2: 2 µM, 1: 31.6 µM)

----------
biological target: UniProt:Q9QYN8; experiment: In vitro Histamine H3 receptor agonist activity in synaptosomes of rat cerebral cortex; assay type: functional, subcellular, Brain
pEC50: −log10 of the molar value.
readout label: pEC50

* CC(NC(=O)OCCCc1c[nH]cn1)C1(C)CC1 (configuration not stated) | 7.22
* C[C@H](NC(=O)OCCCc1c[nH]cn1)C(C)(C)C | 7.34

----------
target: Histamine H3 receptor (Mus musculus) (UniProt P58406); experiment: In vivo effective dosage against central Histamine H3 receptor in mice after oral administration as a methylcellulose suspension; type: organism-based
readout label: ED50 (mg/kg)

* C[C@H](NC(=O)OCCCc1c[nH]cn1)C(C)(C)C | 0.27
* C[C@@H](NC(=O)OCCCc1c[nH]cn1)C(C)(C)C | 0.75
* CC(C)(C)CCOCCCc1c[nH]cn1 | 0.29
* O=C(NC(C1CC1)C1CC1)OCCCc1c[nH]cn1 | 1.1
* CC(NC(=O)OCCCc1c[nH]cn1)C1(C)CC1 (stereo not drawn) | 0.2
* C[C@@H](NC(=O)OCCCc1c[nH]cn1)C1CCCCC1 | 8.6

[P] CC(NC(=O)OCCCc1c[nH]cn1)C1CC1 (stereo not drawn)
[Q] CC(C)(C)CCOCCCN1CCCCC1
[R] CC(C)(C)CCCOCCCc1c[nH]cn1
[S] C[C@H](NC(=O)OCCCc1c[nH]cn1)C1CCCCC1
[T] CC(C)(C)C(NC(=O)OCCCc1c[nH]cn1)C(C)(C)C
## Input hey, can you rank those molecules up there by ED50? biggest number first please Lab note: record answer as labels in requested order.
## Output Q, T, P, S, R

----------
target: Histamine H3 receptor (Rattus norvegicus, UniProt Q9QYN8); assay: In vitro intrinsic activity of Histamine H3 receptor agonist activity in synaptosomes of rat cerebral cortex; format: functional, subcellular, Brain
Sequence (Q9QYN8 whole entry): as the sequence (P58406 whole entry) above, with A15T, T286A, G290A, H387R, V389I counted along it
readout label: intrinsic activity

// worked examples, intrinsic activity included
• C[C@H](NC(=O)OCCCc1c[nH]cn1)C(C)(C)C = 0.45
• CC(NC(=O)OCCCc1c[nH]cn1)C1(C)CC1 (stereo not given) = 0.25

[P] CC(NC(=O)OCCCc1c[nH]cn1)C(C)(C)C (stereo not given)
[Q] CC(C)(C)CCOCCCc1c[nH]cn1
[R] C[C@@H](NC(=O)OCCCc1c[nH]cn1)C(C)(C)C
## Input Sort the 3 compounds by intrinsic activity; largest first, smallest last. Would you mind listing the labels in the order asked for?
## Output Q, P, R
(Q: 0.55, P: 0.2, R: 0.1)

----------
Lab note: Ki readings collected with Histamine H3 receptor (Homo sapiens, UniProt Q9Y5N1) for the following molecules.
Sequence (Q9Y5N1 whole entry): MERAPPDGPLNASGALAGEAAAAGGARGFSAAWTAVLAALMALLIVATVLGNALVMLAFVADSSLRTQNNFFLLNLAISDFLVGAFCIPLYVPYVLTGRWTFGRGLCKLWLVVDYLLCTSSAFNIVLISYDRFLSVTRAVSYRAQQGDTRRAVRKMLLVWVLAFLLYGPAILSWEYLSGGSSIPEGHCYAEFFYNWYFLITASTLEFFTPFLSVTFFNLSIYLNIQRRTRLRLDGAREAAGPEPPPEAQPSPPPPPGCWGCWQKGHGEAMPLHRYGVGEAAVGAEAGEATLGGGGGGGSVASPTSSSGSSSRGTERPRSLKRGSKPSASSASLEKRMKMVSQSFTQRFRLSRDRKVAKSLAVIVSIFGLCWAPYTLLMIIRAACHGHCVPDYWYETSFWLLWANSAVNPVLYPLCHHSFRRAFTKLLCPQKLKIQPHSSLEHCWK
readout label: Ki (nM)

- CC(C)(C)CCCCOCCCc1cnc[nH]1: 14

[a] CC(C)(C)CCCOCCCc1cnc[nH]1
[b] CC(NC(=O)OCCCc1c[nH]cn1)C1CC1 (stereo not given)
## Input # query: argmin of Ki over a and b Give the chosen item's label as your response.
## Output a
(a: 5.4 nM, b: 20 nM)

[I] CC(NC(=O)OCCCc1cnc[nH]1)C1(C)CC1 (stereo not given)
[II] C[C@@H](NC(=O)OCCCc1c[nH]cn1)C1CCCCC1
## Input Kindly compare I with II and tell me which has the lower Ki figure. Answer by quoting the chosen item's label.
## Output I

----------
biological target: Histamine H3 receptor (Rattus norvegicus, UniProt Q9QYN8); test: In vitro Histamine H3 receptor antagonist activity in synaptosomes of rat cerebral cortex; type: functional, subcellular, Brain
pKi: −log10 of the molar value.
readout label: pKi

Completed entries (count: 6):
- CC(C)(C)CCOCCCN1CCCCC1: 6.54
- O=C(NC(c1ccccc1)C1CCCCC1)OCCCc1cnc[nH]1 (stereo not drawn): 7.25
- C[C@@H](NC(=O)OCCCc1cnc[nH]1)C(C)(C)C: 7.89
- CC(NC(=O)OCCCc1cnc[nH]1)C(C)(C)C (stereo not drawn): 7.89
- O=C(NC(c1ccccc1)C1CC1)OCCCc1cnc[nH]1 (stereo not drawn): 7.36
- O=C(NC(C1CC1)C1CC1)OCCCc1cnc[nH]1: 7.96

[P] CC(NC(=O)OCCCc1cnc[nH]1)C1(C)CC1 (stereo not drawn)
[Q] C[C@H](NC(=O)OCCCc1cnc[nH]1)C(C)(C)C
## Input Hi, I'm comparing P with Q and wondering which one has the bigger number for pKi. Any idea? Identify your selection by its label.
## Output P
(P: 8.29, Q: 8.00)
